SUBJECT OF TEST: Grb2 SH2 (UniProt P62993)
ASSAY: SH2 binding enrichment of the phosphorylated peptide, bacterial display (enrichment ratio); higher = better substrate or ligand; peptides without Tyr show the background;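 note: peptide library displayed on the E. coli surface as eCPX fusions, selected cells deep-sequenced, score is each peptide's frequency after selection divided by its frequency in the input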
MEASUREMENT NAME: SH2 binding enrichment

FADIAYIFRHG [PAH_Y166_N167I_YF] ... 0.756
KGEPQYSSHSS [SIPA1L3_Y1265] ... 0.853
QQMGTYGVRAA [ICAM2_Y260_R256Q] ... 1.07

1. LSSETYVKSFT [F5_Y2149_M2148T_YF]
2. RARPPYTVAAD [ANKZF1_Y572]
3. PYSNSYENSLI [EPOR_Y489_P488S]
List from greatest to least SH2 binding enrichment. List labels; respect the requested ordering. 3, 2, 1
